Data provenance: patent US12630532B2

test system: LS174T cells; assay: Cell proliferation inhibition assay (5 days, cell counting); type: cell-based; conditions: Homo sapiens, LS174T, 120 h; 62 nM, 5 days
Binary classification by inhibition at 0.062 µM, with 10% as an inclusive lower bound for fulfilled; all other cases are not fulfilled.

Problem: Check this compound for inhibition at 0.062 µM at or above 10%: Nc1nc2cc(N3CCC(CO)CC3)ccc2cc1-c1ccccc1F [LMK-6-117]
Result: fulfilled

---

tested on: LS174T cells; experiment: Cell proliferation inhibition assay (5 days, cell counting); assay type: cell-based; conditions: Homo sapiens, LS174T, 120 h; 62 nM, 5 days
recordedEndpoint: inhibition at 0.062 µM (%)
Reply with just the number (in %).

> print(dat)
                             chemicalsmiles  resultnumber
1  COCC1CCN(c2ccc3cc(-c4cn(C)c5ccccc45)c(N)nc3c2)CC1            12

Problem: Fill: inhibition at 0.062 µM (LS174T cells) for this compound Cn1cc(-c2cc3ccc(N4CCC(C#N)CC4)cc3nc2N)c2ccccc21
Result: 19

Problem: State the measured inhibition at 0.062 µM (LS174T cells) of Cn1cc(-c2cc3ccc(N4CCC(CO)CC4)cc3nc2N)c2ccccc21
Result: 20

Problem: Find the measured inhibition at 0.062 µM of N#CC1CCN(c2ccc3cc(-c4ccccc4F)c(N)nc3c2)CC1 with LS174T cells as test system.
Result: 2

Problem: Write inhibition at 0.062 µM of Cn1cc(-c2cc3ccc(N4CCCCC4)cc3nc2N)c2ccccc21 ; system used: LS174T cells
Result: 8.2

Problem: Using LS174T cells as the test system, report measured inhibition at 0.062 µM of COCC1CCN(c2ccc3cc(-c4ccccc4F)c(N)nc3c2)CC1 .
Result: 16

---

test system: LS174T cells; assay: Cell proliferation inhibition assay (5 days, cell counting); assay type: cell-based; settings: Homo sapiens, LS174T, 120 h; 62 nM, 5 days
recordedEndpoint: inhibition at 0.062 µM (%)
The reply should be a number in %, with the unit left off.

Solved cases (2 shown):
> print(dat)
                             chemicalsmiles  endpointunit  resultnumber
1  Nc1nc2cc(N3CCC(c4ccccc4)CC3)ccc2cc1-c1ccccc1F             %             2
2  CN(C)c1ccc2cc(-c3cn(C)c4ccccc34)c(N)nc2c1             %            16

Attention now turns to another entry.
Problem: Please indicate recorded inhibition at 0.062 µM of Cn1cc(-c2cc3ccc(N4CCC(c5ccncc5)CC4)cc3nc2N)c2ccccc21 measured with LS174T cells.
Result: 21
